- System: Haemophilus parasuis
- experiment_notes: in vitro susceptibility, MIC by mini broth dilution
- Assay type: cell-based
endpoint_label: MIC values, Haemophilus parasuis (ug/mi)
Give the value, in units of ug/mi, as a plain number.

These solved cases illustrate the format of a correct answer.
CCCN1C[C@H](C)[C@@H](O)[C@](C)(O)[C@@H](CC)OC(=O)[C@H](C)[C@@H](O[C@H]2C[C@@](C)(OC)[C@](O)(CN3CCOCC3)[C@H](C)O2)[C@H](C)[C@@H](O[C@@H]2O[C@H](C)C[C@H](N(C)C)[C@H]2O)[C@](C)(O)C[C@H]1C: 4
CCCN1C[C@H](C)[C@@H](O)[C@](C)(O)[C@@H](CC)OC(=O)[C@H](C)[C@@H](O[C@H]2C[C@@](C)(OC)[C@](O)(CNCc3cccnc3)[C@H](C)O2)[C@H](C)[C@@H](O[C@@H]2O[C@H](C)C[C@H](N(C)C)[C@H]2O)[C@](C)(O)C[C@H]1C: 0.25
CC[C@H]1OC(=O)[C@H](C)[C@@H](O[C@H]2C[C@@](C)(OC)[C@](O)(CNc3ccc(Cl)cc3C)[C@H](C)O2)[C@H](C)[C@@H](O[C@@H]2O[C@H](C)C[C@H](N(C)C)[C@H]2O)[C@](C)(O)C[C@@H](C)NC[C@H](C)[C@@H](O)[C@]1(C)O: 1
CCCN1C[C@H](C)[C@@H](O)[C@](C)(O)[C@@H](CC)OC(=O)[C@H](C)[C@@H](O[C@H]2C[C@@](C)(OC)[C@](O)(CNCCc3ccncc3)[C@H](C)O2)[C@H](C)[C@@H](O[C@@H]2O[C@H](C)C[C@H](N(C)C)[C@H]2O)[C@](C)(O)C[C@H]1C [syzx-164]: 0.25
CCCN1C[C@H](C)[C@@H](O)[C@](C)(O)[C@@H](CC)OC(=O)[C@H](C)[C@@H](O[C@H]2C[C@@](C)(OC)[C@@H](O)[C@H](C)O2)[C@H](C)[C@@H](O[C@@H]2O[C@H](C)C[C@H](N(C)C)[C@H]2O)[C@](C)(O)C[C@H]1C [Gamithromycin, reference compound]: 0.25

Would you kindly look at the next entry?
Tell me measured MIC values, Haemophilus parasuis for C#CC=C(C)NC[C@]1(O)[C@H](C)O[C@@H](O[C@H]2[C@H](C)[C@@H](O[C@@H]3O[C@H](C)C[C@H](N(C)C)[C@H]3O)[C@](C)(O)C[C@@H](C)N(CCC)C[C@H](C)[C@@H](O)[C@](C)(O)[C@@H](CC)OC(=O)[C@@H]2C)C[C@@]1(C)OC please.
0.25

Reference source for all entries: patent US9765105B2
